Protocol Text: AUClast in CD-1 mouse plasma at 10 mg/kg, ip administered as single dose after 24 hrs by UPLC-MS/MS method
Type: ADME, organism-based
Measured Metric: AUC(0-t) at 24 h (µM·h)
Reply with just the number (in µM·h).

Challenge: Supply AUC(0-t) at 24 h value. Item: Cc1oc(-c2ccc(Cl)c(Cl)c2)nc1CN1CCC(C(=O)NCCCN2C[C@H](C)C[C@H](C)C2)CC1
Response given: 17.6

###

Protocol Text: Ratio of Cmax in CD-1 mouse liver to plasma at 1 mg/kg, ip administered as single dose after 24 hrs
Type: ADME, organism-based
Measured Metric: Kp at 24 h
Just the number, please, no unit attached.

Challenge: Name the recorded Kp at 24 h of the compound listed here: Cc1oc(-c2ccc(Cl)c(Cl)c2)nc1CN1CCC(C(=O)NCCCN2C[C@H](C)C[C@H](C)C2)CC1
Response given: 67

###

Protocol Text: Cmax in CD-1 mouse plasma at 0.1 mg/kg, ip administered as single dose after 24 hrs by UPLC-MS/MS method
Type: ADME, organism-based
Set-up: dose 0.1 mg/kg, route intraperitoneal
Measured Metric: Cmax
# output: number + unit

Challenge: Return reported Cmax. Input compound: Cc1oc(-c2ccc(Cl)c(Cl)c2)nc1CN1CCC(C(=O)NCCCN2C[C@H](C)C[C@H](C)C2)CC1
Response given: 8.76 nM

###

Test system: Plasma
Protocol Text: AUC (infinity) in CD-1 mouse plasma at 0.1 mg/kg, ip administered as single dose after […] by UPLC-MS/MS method
Format: ADME, organism-based
Set-up: dose 0.1 mg/kg, time infinity, route intraperitoneal
Condition Label: in vivo
Measured Metric: AUC (µM·h)
Numbers only here, please. The scale is µM·h.

Challenge: # assay system Plasma: give AUC of Cc1oc(-c2ccc(Cl)c(Cl)c2)nc1CN1CCC(C(=O)NCCCN2C[C@H](C)C[C@H](C)C2)CC1
Response given: 0.0639

###

Kindly supply the reported solubility kinetic values for the records listed here.
Protocol Text: Kinetic solubility of the compound in pH 7.4 phosphate buffer
Type: physicochemical
Condition Label: read-out: Kinetic_solubility

Challenge: Item Cc1oc(-c2c(Cl)cccc2C(F)(F)F)nc1CN1CCC(C(=O)NCCCN2C[C@H](C)C[C@H](C)C2)CC1 : provide solubility kinetic
Response given: 65.1 µg/mL

Challenge: Report solubility kinetic for Cc1oc(-c2c(Cl)cccc2Cl)nc1CN1CCC(C(=O)NCCCN2C[C@H](C)C[C@H](C)C2)CC1
Response given: > 77 µg/mL

Challenge: Indicate the recorded solubility kinetic value for this compound: Cc1ccccc1-c1nc(CN2CCC(C(=O)N3CCN(CCN(C)C)CC3)CC2)c(C)o1
Response given: > 67 µg/mL

Challenge: Name the recorded solubility kinetic of the compound listed here: COc1cccc(C)c1-c1nc(CN2CCC(C(=O)NCCCN3C[C@H](C)C[C@H](C)C3)CC2)c(C)o1
Response given: > 73 µg/mL

Challenge: For the compound Cc1oc(-c2cccc(Cl)c2)nc1CN1CCC(C(=O)NCCCN2C[C@H](C)C[C@H](C)C2)CC1 , report solubility kinetic.
Response given: > 72 µg/mL

Challenge: # return recorded solubility kinetic for input Cc1ccc(C)c(-c2nc(CN3CCC(C(=O)NCCCN4C[C@H](C)C[C@H](C)C4)CC3)c(C)o2)c1
Response given: 56.1 µg/mL

Challenge: Hello, please tell me recorded solubility kinetic for this one: Cc1oc(-c2ccc(Cl)cc2)nc1CN1CCC(C(=O)NCCCN2C[C@H](C)C[C@H](C)C2)CC1
Response given: > 72 µg/mL

Challenge: Name the recorded solubility kinetic of the item CCCN(CCC)CCNC(=O)C1CCN(Cc2nc(-c3ccccc3C)oc2C)CC1 in your answer.
Response given: > 65 µg/mL

Challenge: Provide one value: measured solubility kinetic of Cc1ccccc1-c1nc(CN2CCC(C(=O)NCCCN3C[C@H](C)C[C@H](C)C3)CC2)c(C)s1
Response given: > 71 µg/mL

Challenge: Please report solubility kinetic for the following compound: Cc1cccc(Cl)c1-c1nc(CN2CCC(C(=O)NCCCN3CCC(C(C)C)CC3)CC2)c(C)o1
Response given: > 76 µg/mL

Challenge: Provide measured solubility kinetic value, entry: COc1ccc(-c2nc(CN3CCC(C(=O)NCCCN4C[C@H](C)C[C@H](C)C4)CC3)c(C)o2)cc1OC
Response given: > 76 µg/mL

Challenge: Respond only with solubility kinetic recorded for Cc1ccccc1-c1nc(CN2CCC(C(=O)NCCN3C[C@H](C)C[C@H](C)C3)CC2)c(C)o1
Response given: > 67 µg/mL

Challenge: Identify solubility kinetic associated with the compound Cc1oc(-c2c(Br)cccc2Br)nc1CN1CCC(C(=O)NCCCN2C[C@H](C)C[C@H](C)C2)CC1
Response given: 62.4 µg/mL

Challenge: Identify measured solubility kinetic associated with Cc1cc(C)cc(-c2nc(CN3CCC(C(=O)NCCCN4C[C@H](C)C[C@H](C)C4)CC3)c(C)o2)c1
Response given: > 71 µg/mL

Challenge: Give the value of solubility kinetic reported for the following: Cc1oc(-c2ccccc2Cl)nc1CN1CCC(C(=O)NCCCN2C[C@H](C)C[C@H](C)C2)CC1
Response given: > 72 µg/mL

Challenge: // Input: Cc1ccc(-c2nc(CN3CCC(C(=O)NCCCN4C[C@H](C)C[C@H](C)C4)CC3)c(C)o2)c(C)c1 . Output its solubility kinetic only.
Response given: > 71 µg/mL

Challenge: State its solubility kinetic: COc1cccc(Cl)c1-c1nc(CN2CCC(C(=O)NCCCN3C[C@H](C)C[C@H](C)C3)CC2)c(C)o1
Response given: > 76 µg/mL

###

Protocol Text: Kinetic solubility of the compound in pH 7.4 phosphate buffer
Assay type: physicochemical
Condition Label: read-out: Kinetic_solubility
Measured Metric: solubility kinetic

Challenge: Supply measured solubility kinetic of Cc1oc(-c2cccc3ccccc23)nc1CN1CCC(C(=O)NCCCN2C[C@H](C)C[C@H](C)C2)CC1 in your reply.
Response given: > 74 µg/mL

Challenge: Item Cc1cc(-c2nc(CN3CCC(C(=O)NCCCN4C[C@H](C)C[C@H](C)C4)CC3)co2)ccc1F : provide solubility kinetic
Response given: > 70 µg/mL

Challenge: Please give the documented solubility kinetic of Cc1ccccc1-c1nc(CN2CCC(C(=O)N3CCN(C4CCN(C)CC4)CC3)CC2)c(C)o1
Response given: > 71 µg/mL

Challenge: // fetch solubility kinetic given entry COc1cccc(Br)c1-c1nc(CN2CCC(C(=O)NCCCN3C[C@H](C)C[C@H](C)C3)CC2)c(C)o1
Response given: > 83 µg/mL

Challenge: Give the measured solubility kinetic for COc1cccc(OC)c1-c1nc(CN2CCC(C(=O)NCCCN3C[C@H](C)C[C@H](C)C3)CC2)c(C)o1
Response given: > 76 µg/mL

Challenge: Look up and report measured solubility kinetic for this entry: Cc1ccccc1-c1nc(CN2CCC(C(=O)NCCCCN3C[C@H](C)C[C@H](C)C3)CC2)c(C)o1
Response given: > 71 µg/mL

Challenge: For Cc1ccccc1-c1nc(CN2CCC(C(=O)NCCCN3CCCCC3)CC2)c(C)o1 , write its solubility kinetic.
Response given: > 65 µg/mL

Challenge: Using the record for Cc1cccc(Cl)c1-c1nc(CN2CCC(C(=O)NCCCN3CCC(C)(C)CC3)CC2)c(C)o1 , state its measured solubility kinetic.
Response given: > 74 µg/mL

###

Protocol Text: Permeability of the compound by PAMPA
Format: physicochemical
Condition Label: read-out: permeability
Field: Papp. Provide a value for each of the molecules that follow.
Use ×10⁻⁶ cm/s as the unit, but write only the number.

Challenge: Please give measured Papp of the following entry: Cc1ccccc1-c1nc(CN2CCC(C(=O)NCCCN3C[C@H](C)C[C@H](C)C3)CC2)c(C)o1
Response given: 489

Challenge: # return recorded Papp for input Cc1oc(-c2cccc(Cl)c2)nc1CN1CCC(C(=O)NCCCN2C[C@H](C)C[C@H](C)C2)CC1
Response given: 615

Challenge: Please list Papp recorded for the molecule Cc1cccc(F)c1-c1nc(CN2CCC(C(=O)NCCCN3C[C@H](C)C[C@H](C)C3)CC2)c(C)o1
Response given: 234

Challenge: Quote Papp reported for Cc1cccc(-c2nc(CN3CCC(C(=O)NCCCN4C[C@H](C)C[C@H](C)C4)CC3)c(C)o2)c1 please.
Response given: 279

Challenge: Return the recorded Papp value; entry: COc1ccc(-c2nc(CN3CCC(C(=O)NCCCN4C[C@H](C)C[C@H](C)C4)CC3)c(C)o2)cc1OC
Response given: 81.9

###

Tested on: Plasma
Protocol Text: Cmax in CD-1 mouse plasma at 0.1 mg/kg, ip administered as single dose after […] by UPLC-MS/MS method
Format: ADME, organism-based
Design: dose 0.1 mg/kg, route intraperitoneal
Condition Label: in vivo
Measured Metric: Cmax (nM)
Please give a number only; it is taken to be in nM.

Challenge: Consider the molecule Cc1oc(-c2ccc(Cl)c(Cl)c2)nc1CN1CCC(C(=O)NCCCN2C[C@H](C)C[C@H](C)C2)CC1 and give its recorded Cmax.
Response given: 8.76
